system: 156681-154-R-J1-PDC complex spheroid viability; assay: Anticancer human tumor 156681-154-R-J1-PDC patient-derived melanoma cell line growth inhibition [CLK]; details: second compound 10 µM; first compound 0.316 µM; active = viability on the fitted dose curve at most 10% of control; inactive = the rest;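 note: spheroids exposed to the agents for seven days; 100% = DMSO vehicle control viability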
The reply should be one of these categories: 1.0 for active, 0.0 for inactive

Incoming: Please state the recorded outcome for this compound: CCc1c2c(nc3ccc(O)cc13)-c1cc3c(c(=O)n1C2)COC(=O)[C@]3(O)CC + CNC(=O)c1ccc(Nc2nc(OC3CCCC3)c3c(-c4ccc5nc(C)oc5c4)c[nH]c3n2)c(OC)c1
Outgoing: 1.0

Incoming: Please state the recorded outcome for this compound: CCN1CCN(Cc2ccc(Nc3ncc(F)c(-c4cc(F)c5nc(C)n(C(C)C)c5c4)n3)nc2)CC1 + CNC(=O)c1ccc(Nc2nc(OC3CCCC3)c3c(-c4ccc5nc(C)oc5c4)c[nH]c3n2)c(OC)c1
Outgoing: 0.0

Incoming: Please state the recorded outcome for this compound: O=C(c1cc(Cc2n[nH]c(=O)c3ccccc23)ccc1F)N1CCN(C(=O)C2CC2)CC1 + CN1CCN(c2cc(C(=O)Nc3cc4cc(-c5cnn(C)c5)ccc4cn3)ccn2)CC1
Outgoing: 1.0

Incoming: Please state the recorded outcome for this compound: Nc1ccn(C2OC(CO)C(O)C2(F)F)c(=O)n1 (stereo unspecified) + CN1CCN(c2cc(C(=O)Nc3cc4cc(-c5cnn(C)c5)ccc4cn3)ccn2)CC1
Outgoing: 1.0

Incoming: Please state the recorded outcome for this compound: CC(CO)NC(=O)c1cc(-c2ccc(Cl)cc2)nn(-c2cnn(C)c2)c1=O (stereo unspecified) + CN1CCN(c2cc(C(=O)Nc3cc4cc(-c5cnn(C)c5)ccc4cn3)ccn2)CC1
Outgoing: 1.0

Incoming: Please state the recorded outcome for this compound: Nc1ccccc1NC(=O)c1ccc(CNC(=O)OCc2cccnc2)cc1 + CN1CCN(c2cc(C(=O)Nc3cc4cc(-c5cnn(C)c5)ccc4cn3)ccn2)CC1
Outgoing: 1.0
